The measurements presented in this section are drawn from patent US20160185837A1.

Target: T1, rat GLP-1 receptor (rat, UniProt P32301 22-463)
T1 sequence (looked up): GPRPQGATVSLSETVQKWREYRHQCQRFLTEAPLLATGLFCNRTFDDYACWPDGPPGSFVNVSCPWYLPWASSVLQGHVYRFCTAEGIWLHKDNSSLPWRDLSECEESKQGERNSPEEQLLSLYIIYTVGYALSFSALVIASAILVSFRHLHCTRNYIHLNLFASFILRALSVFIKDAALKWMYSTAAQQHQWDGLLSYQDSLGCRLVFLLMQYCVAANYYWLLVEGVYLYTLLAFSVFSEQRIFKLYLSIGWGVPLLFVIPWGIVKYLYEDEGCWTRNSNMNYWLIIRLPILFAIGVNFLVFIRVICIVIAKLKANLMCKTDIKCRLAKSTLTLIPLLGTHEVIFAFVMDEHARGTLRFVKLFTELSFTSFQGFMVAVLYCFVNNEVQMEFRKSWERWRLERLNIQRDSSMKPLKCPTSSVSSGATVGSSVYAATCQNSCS
Test: cell-based or functional assay
Ends that are not written are not given here.
Criterion: cAMP EC50 meeting or surpassing 0.06 nM. Met: TRUE. Not met: FALSE.

Previously resolved entries follow.
INSERT INTO assay_data (binder, answer_label) VALUES
  ('IP295 (Fc fusion) YSEGTFTSDYSKLLEEEAVRLFIEWLLAGGPSSGAPPPSGGGGGSGGGGSGGGGSGGGGSATHTCPPC', 'FALSE'),
  ('IP360 (Fc fusion) YSEGTFTSDYRILLEEEAVRLFIEWLLAGGGGGGSGGGGSGGGGSGGGGSATHTCPPC', 'TRUE'),
  ('IP294 (Fc fusion) YSEGTFTSDYSKLLEEEAVRLFICWLVCGPGGGGGGGGGGGGGGGGGGGGACPPC', 'TRUE'),
  ('IP291 (Fc fusion) YSEGTFTSDYSKLLEEECVRLFIEWLVKGGPGGGAPPPGCGGGGGGGGGGGGGGGGGACPPC', 'TRUE'),
  ('IP300 (Fc fusion) YSEGTFTSDYSKLLEEEAVRLFIEWLLAGAPPGGGGGGGGGGGGGGGGGGGGGACPPC', 'FALSE');

## Input Quick check, cAMP EC50 >= 0.06 nM? IP296 (Fc fusion) YSEGTFTSDYSKLLEEEAVRCFIEWLVKGGPSSGAPPCSGGGGGGGGGGGGGGGGGGGGGGGGACPPC
## Output FALSE

## Input Quick check, cAMP EC50 >= 0.06 nM? IP261 (Fc fusion) YSEGTFTSDYSKLLEEEAVRLFVEWLVKGPGGGGGSGGGGSGGGGSGGGGSATHTCPPCPAPEF
## Output FALSE

## Input Quick check, cAMP EC50 >= 0.06 nM? IP276 (Fc fusion) YSEGTFTSDYSKLLEEEAVRLFIEWLVKGPGGGGGGGGGGGGGGGGGATHTCPPC
## Output FALSE

## Input Quick check, cAMP EC50 >= 0.06 nM? IP273 (Fc fusion) YSEGTFTSDYSKLLEEEAVRLFIEWLVKGPAAAGGSGSTASSGSGSATGGGGAATHTCPPC
## Output FALSE

## Input Quick check, cAMP EC50 >= 0.06 nM? IP235 (Fc fusion, cysteine pairing not given here; also: fused to IgG1-TM Fc) YSEGTFTSDYSKLLEEEAVRLFIEWLVKGPGGGGGSGGGGSATHTCPPCPAPEF
## Output FALSE

## Input Quick check, cAMP EC50 >= 0.06 nM? IP297 (Fc fusion) YSEGTFTSDYSKLLEEEAVRLFIEWLLAGGGGGGGGGGGGGGGGGGGGGGGGGACPPC
## Output FALSE
